Molecular target: T1, EDIII-DV4 (E protein domain III of dengue virus serotype DV-4) (dengue virus serotype DV-4, UniProt P09866 572-679)
T1 construct: also called DENV-4
T1 sequence (P09866 572-679, tags left off): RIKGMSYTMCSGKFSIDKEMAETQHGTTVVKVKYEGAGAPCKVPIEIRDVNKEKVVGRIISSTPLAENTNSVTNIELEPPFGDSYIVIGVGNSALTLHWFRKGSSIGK
Would you kindly list Kd for each of these binders?
Please respond with the number in nM and leave the unit unwritten.

Short answer for antibody D88 (antibody, V domains shown, also called mAb D88) VH: QVQLVQSGAEVKKPGASVKVSCKAGFNIKDVYMSWVRQAPEQGLEWMGRIDPENGDTKYDPKLQGRVTMTADTSTNTAYMELRSLRSDDTAVYYCARGWEGFAYWGQGTLVTVSS VL: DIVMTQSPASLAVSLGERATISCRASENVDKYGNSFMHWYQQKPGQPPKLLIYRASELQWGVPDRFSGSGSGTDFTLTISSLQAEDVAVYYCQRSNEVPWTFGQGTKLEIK : Kd was 5.01

Short answer for D178 (antibody, V domains shown) VH: QVQLVQSGAEVKKPGASVKVSCKAGFNIKDVYMSWVRQAPEQGLEWMGRIDPENGDTKYDPKLQGRVTMTADTSTNTAYMELRSLRSDDTAVYYCVRGWEGFAYWGQGTLVTVSS VL: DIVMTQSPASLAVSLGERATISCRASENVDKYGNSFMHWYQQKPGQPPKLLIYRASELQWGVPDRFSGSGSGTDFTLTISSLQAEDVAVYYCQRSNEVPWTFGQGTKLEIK : Kd was 4.67

Short answer for antibody C88 (antibody, V domains shown) VH: QVQLVQSGAEVKKPGASVKVSCKASGFNIKDVYMSWVRQAPEQGLEWMGRIDPENGDTKYDPKLQGRVTMTADTSTNTAYMELRSLRSDDTAVYYCARGWEGFAYWGQGTLVTVSS VL: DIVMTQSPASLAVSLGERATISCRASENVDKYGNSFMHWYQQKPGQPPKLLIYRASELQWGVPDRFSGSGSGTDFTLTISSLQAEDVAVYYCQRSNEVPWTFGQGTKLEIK : Kd was 23.8

Short answer for C128 (antibody, V domains shown) VH: QVQLVQSGAEVKKPGASVKVSCKASGFNIKDVYMSWVRQAPEQGLEWMGRIDPENGDTKYDPKLQGRVTMTADTSTNTAYMELRSLRSDDTAVYYCSRGWEGFAYWGQGTLVTVSS VL: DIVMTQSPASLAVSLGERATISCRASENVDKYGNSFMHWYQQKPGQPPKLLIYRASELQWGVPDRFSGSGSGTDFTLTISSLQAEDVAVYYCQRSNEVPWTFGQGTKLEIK : Kd was 18.7

Just for reference, patent US20240425569A1 is where these values come from.
